- methodNotes: Stability of the peptide in the presence of mouse serum
- Type: ADME, organism-based
Non-standard residues stand in square brackets, D forms with d. Residues, ends and D or L forms follow the SMILES beside them. Ahx = NCCCCCC(=O)O
assayMetric: half-life (min)
State just the number; it will be interpreted in min.

Sample records with half-life:
[[record]]
compound = "CC[C@H](C)[C@H](NC(=O)[C@H](Cc1ccc(O)cc1)NC(=O)[C@H](CCCCN)NC(=O)[C@H](CCCCN)NC(=O)CCCCCNC(C)=O)C(=O)N[C@@H](CCCCN)C(=O)N[C@H](C(=O)N[C@@H](Cc1ccccc1)C(=O)N[C@H](C(=O)N[C@@H](Cc1ccccc1)C(=O)N[C@@H](CCCCN)C(N)=O)C(C)C)C(C)C (Ac-[Ahx]KKYIKVFVFK-NH2)"
assaymetric = "half-life"
reportedresult = 45

[[record]]
compound = "CC[C@H](C)[C@H](NC(=O)[C@H](Cc1ccc(O)cc1)NC(=O)[C@H](CCCCN)NC(=O)[C@@H](N)CCCCN)C(=O)N[C@@H](CCCCN)C(=O)N[C@H](C(=O)N[C@@H](Cc1ccccc1)C(=O)N[C@H](C(=O)N[C@@H](Cc1ccccc1)C(=O)N[C@@H](CCCCN)C(N)=O)C(C)C)C(C)C (H-KKYIKVFVFK-NH2)"
assaymetric = "half-life"
reportedresult = 8


Query compound follows.
Short answer for CC[C@H](C)[C@H](NC(=O)[C@H](Cc1ccc(O)cc1)NC(=O)[C@H](CCCCN)NC(=O)[C@H](CCCCN)NC(C)=O)C(=O)N[C@@H](CCCCN)C(=O)N[C@H](C(=O)N[C@@H](Cc1ccccc1)C(=O)N[C@H](C(=O)N[C@@H](Cc1ccccc1)C(=O)N[C@@H](CCCCN)C(N)=O)C(C)C)C(C)C (Ac-KKYIKVFVFK-NH2) : half-life was 30
